Data origin, for the record: the supplement of paper PMC10201428

Each item that follows carries a reported relative integration efficiency (log2).
# Test system: VchCAST RNA-guided transposition machinery (E. coli BL21(DE3) host, lacZ target)
# protocol: relative integration efficiency (T-LR orientation) vs wild-type transposon end (log2 (normalized fold change)); transposon end mutated: right end (5 bp flank + 75 bp right end); higher = more efficient transposition
# output: bare number, no unit

Below are worked cases with known answers.
ACATTTGTTGATACCACCATAAAATGATAATTACCCCCATAAATTGATAATTATCACCCCCATAAATTGATATTGCCTCTGATCATAGTCAGACCAACATTGCTACGACCCGTATTCGCACCGACAC = 1.35
ACATTTGTTGATACAACCATAAGTTGATATTTTCACCCATAAATTGATAATTATCACAACCATATATTGATATCTCCTCTGATCATAGTCAGACCAACATTGCTACGACCCGTATTCGCACCGACAC = -0.455
ACATTTGTTGATACACCCATAAATTGATATTGCCAACCATAAAATGATAATTATCACAACCATAAGTTGATATTTTCTCTGATCATAGTCAGACCAACATTGCTACGACCCGTATTCGCACCGACAC = -0.175
ACATTTGTTGATACAACCATATATTGATATCTCCAACCATAAAGTGATATTTATCACACCCATAAATTGATAATTACTCTGATCATAGTCAGACCAACATTGCTACGACCCGTATTCGCACCGACAC = -0.426
ACATTACAAGATACAACCATAAAATGATAATTACACCCATAAATTGATAATTATCACACCCATAAATTGATATTGCCTCTGATCATAGTCAGACCAACATTGCTACGACCCGTATTCGCACCGACAC = -4.65
ACATTTGGGTCTACAACCATAAAATGATAATTACACCCATAAATTGATAATTATCACACCCATAAATTGATATTGCCTCTGATCATAGTCAGACCAACATTGCTACGACCCGTATTCGCACCGACAC = -4.93
ACATTTGTTGATACAACCATAAAATGATAATTACACCCATAAATTGATAATTAAGTGACCCATAAATTGATATTGCCTCTGATCATAGTCAGACCAACATTGCTACGACCCGTATTCGCACCGACAC = 0.91
ACATTTGTAAAAAAAACCATACGTTGATTTTACGAAACCATACGCTGAAATAAAAACAACCATACCTTGAAATTGCCTCTGATCATAGTCAGACCAACATTGCTACGACCCGTATTCGCACCGACAC = -4.82
ACATTTGGTGATACAACCATATAATGATAATAACACCCATAAAATGATAATTATCACACCCAATTTAACTATAACGCTCTGATCATAGTCAGACCAACATTGCTACGACCCGTATTCGCACCGACAC = -3.69

With those in mind, consider the next sequence.
// relative integration efficiency (log2) lookup, sequence = ACATTTGTTGATACAACCATAAAGTGATATTTACAACCATAAGTTGATATTTTTCACACCCATAAATTGATATTGCCTCTGATCATAGTCAGACCAACATTGCTACGACCCGTATTCGCACCGACAC , result: 0.319
